# Organism: Rattus norvegicus
# experiment.description: Antihyperglycemic activity in streptozotocin induced diabetic model of Sprague-Dawley albino rat assessed as reduction in blood glucose by AUC method
# Assay type: functional
# Parameters: scale not given: the % may be the effect or the level left
Each record is given 1.0 if its reported Activity is strictly below 10%. Records at or above 10% are given 0.0.

compound | qualitative.label
O=C(/C=C/c1cccc(OCC(O)CN2CCN(c3ccccc3)CC2)c1)c1ccccc1 (stereo unspecified) | 0.0
CC(C)(C)NCC(O)COc1cccc(/C=C/C(=O)c2ccccc2)c1 (stereo unspecified) | 0.0
CN1CCN(CC(O)COc2cccc(/C=C/C(=O)c3ccccc3)c2)CC1 (stereo unspecified) | 0.0
COc1ccc(Cl)cc1C(=O)NCCc1ccc(S(=O)(=O)NC(=O)NC2CCCCC2)cc1 [GLYBURIDE] | 0.0
O=C(/C=C/c1cccc(OCC(O)CN2CCN(c3ccccc3Cl)CC2)c1)c1ccccc1 (stereo unspecified) | 1.0
CC(C)(C)NCC(O)COc1ccc(/C=C/C(=O)c2ccccc2)cc1 (stereo unspecified) | 0.0
CCN(CC)CCCNCC(O)COc1cccc(/C=C/C(=O)c2ccccc2)c1 (stereo unspecified) | 1.0
O=C(/C=C/c1cccc(OCC(O)CN2CCCCC2)c1)c1ccccc1 (stereo unspecified) | 1.0
O=C(/C=C/c1ccc(OCC(O)CN2CCCCC2)cc1)c1ccccc1 (stereo unspecified) | 0.0
CC(C)N(CC(O)COc1cccc(/C=C/C(=O)c2ccccc2)c1)C(C)C (stereo unspecified) | 0.0
O=C(/C=C/c1ccc(OCC(O)CN2CCN(c3ccccc3)CC2)cc1)c1ccccc1 (stereo unspecified) | 1.0
